- Procedure details: in vivo
- Type: in vivo, Sprague–Dawley rats
- Condition details: male, Sprague-Dawley, rat, in vivo; SD rats, single oral D7 4 mL/kg, plasma; read-out: AUClast
Readout name: AUC(0-t)
Remember to follow the number with its unit.

Name the recorded AUC(0-t) for `CC(C)=CCc1cc2c(cc1O)oc(=O)c1c3ccc(O)cc3oc21` . 31.9 ng·h/mL

* * *

- Procedure details: in vivo
- Type: in vivo, Sprague–Dawley rats
- Condition details: SD rats, single oral D7 4 mL/kg, plasma
- Description: Male Sprague–Dawley rats (∼250 g) purchased from Sino-British Sippr/BK Lab Animal, Ltd. (Shanghai, China) were housed in air-conditioned animal quarters with alternating 12 h light/dark cycles at a room temperature of 22°C±2°C and a relative humidity of 50%±10%. Commercial rat chow and water were given ad libitum. […] Standard curves, intra-batch accuracy, and precision for the quantification of the 15 compounds in the rat plasma samples were constructed similarly. […]
Readout name: log10(AUMCall) (log10 of the value in h·h·ng/mL)
The figures below represent log10 of AUMCall, where AUMCall is stated in h·h·ng/mL.

Any idea what its log10(AUMCall) is? The molecule is O=c1ccc2ccc3occc3c2o1 [Isopsoralen, isopsoralen] 5.23

Proceed to CC(C)=CCc1cc2c(cc1O)oc(=O)c1c3ccc(O)cc3oc21 [Psoralidin, psoralidin] 3.35

O=c1ccc2cc3ccoc3cc2o1 [Psoralen, psoralen] , same question. 4.87

Ok, now COc1c2ccoc2cc2oc(=O)ccc12 [Bergapten, bergapten] 3.10

And then COc1c2occc2cc2ccc(=O)oc12 [Xanthotoxin, xanthotoxin] , what is it? 3.16

* * *

- Procedure details: in vivo
- Type: in vivo, Sprague–Dawley rats
- Condition details: male, Sprague-Dawley, rat, in vivo; SD rats, single oral D7 4 mL/kg, plasma; read-out: AUC0–24 h
Readout name: AUC(0-t) (ng·h/mL)
Reply numerically in ng·h/mL, unit not repeated.

GET /values?readout=AUC(0-t)&item= `COc1c2occc2cc2ccc(=O)oc12` 162

What do we get for `COc1c2ccoc2cc2oc(=O)ccc12` ? 143

Follow-up item: `O=c1ccc2cc3ccoc3cc2o1` 9980

Ok, now `O=c1ccc2ccc3occc3c2o1` 20400

* * *

- Procedure details: in vivo
- Assay type: in vivo, Sprague–Dawley rats
- Condition details: SD rats, single oral D7 4 mL/kg, plasma
Readout name: AUMClast (h·h·ng/mL)
// note: answer is a bare numeric in h·h·ng/mL

Looking for the measured AUMClast of CC(C)=CCc1cc2c(cc1O)oc(=O)c1c3ccc(O)cc3oc21 [Psoralidin, psoralidin] , can you help? 329

What would you report for COc1c2ccoc2cc2oc(=O)ccc12 [Bergapten, bergapten] ? 924

Next compound up: O=c1ccc2ccc3occc3c2o1 [Isopsoralen, isopsoralen] 150025

And then COc1c2occc2cc2ccc(=O)oc12 [Xanthotoxin, xanthotoxin] , what is it? 667

# repeat for O=c1ccc2cc3ccoc3cc2o1 [Psoralen, psoralen] 69918

* * *

- Procedure details: in vivo
- Format: in vivo, Sprague–Dawley rats
- Condition details: male, Sprague-Dawley, rat, in vivo, po
Readout name: CL/F (L/h/kg)
Numeric only. Scale: L/h/kg

Recorded CL/F for `COc1c2occc2cc2ccc(=O)oc12` , please? 0.576
